Test system: SEM cells
method.description: cell viability relative to DMSO control; higher = less cytotoxic
protocol.conditions: RPMI 5 mM glucose + 10% FBS; 48 h; 1.71 µM
assay.readout: cell viability (%)

> print(dat)
                                    compound   assay.readout  u  test.value
 1         COc1cc2ncnc(Nc3cccc(Br)c3)c2cc1OC  cell viability  %         136
 2  C[C@@H](N)c1ccc(C(=O)Nc2ccnc3[nH]ccc23)cc1  cell viability  %         139
 3    COC(=O)[C@@H](N)CCCNC(=N)N[N+](=O)[O-]  cell viability  %         101
 4       CCN(C)C(=O)Oc1cccc([C@H](C)N(C)C)c1  cell viability  %        95.9
 5  COc1ccc2c(c1OC)CN1CCc3cc4c(cc3C1C2)OCO4 (stereo not given)  cell viability  %        20.2
 6  Nc1nc(F)nc2c1ncn2[C@@H]1O[C@H](CO)[C@@H](O)[C@H]1O  cell viability  %        7.49
 7  O=C1CCc2ccc(OCCCCN3CCN(c4cccc(Cl)c4Cl)CC3)cc2N1  cell viability  %        23.1
 8  C[S+]([O-])c1ccc(-c2nc(-c3ccc(F)cc3)c(-c3ccncc3)[nH]2)cc1 (stereo not given)  cell viability  %          41
 9  CCOC(=O)[C@H](CCc1ccccc1)N[C@@H](C)C(=O)N1[C@H](C(=O)O)C[C@@H]2CCC[C@@H]21  cell viability  %         113
10                         NC(=O)c1cccc(N)c1  cell viability  %        85.5

* * *

Recorded cell viability by entry
System: SEM cells
method.description: cell viability relative to DMSO control; higher = less cytotoxic
protocol.conditions: RPMI 5 mM glucose + 10% FBS; 48 h; 1.71 µM

compound	test.target	cell viability, %
O=C1N\2CCC3=C([NH]C4=C3C=CC=C4)C2=N/C5=CC=CC=C15	SEM cells	147
O=C1NC(O)CCN1[C@@H]1O[C@H](CO)[C@@H](O)[C@H]1O (stereo not given in full)	SEM cells	111
CNCC(O)C(O)C(O)C(O)CO.O=C(O)c1ccc(-c2cc3cccnc3c(-c3ccc4nonc4c3)n2)cc1	SEM cells	111
CC[C@@]1(O)C[C@H](O[C@H]2C[C@H](N(C)C)[C@H](O[C@H]3C[C@H](O)[C@H](O[C@H]4CCC(=O)[C@H](C)O4)[C@H](C)O3)[C@H](C)O2)c2c(cc3c(c2O)C(=O)c2c(O)cccc2C3=O)[C@H]1C(=O)OC	SEM cells	18.1
Nc1nc(OCc2ccccc2)c2nc[nH]c2n1	SEM cells	78.4
CC1(C)CC(O)CC(C)(C)N1[O]	SEM cells	101
C#C[C@]1(O)CC[C@H]2[C@@H]3CCc4cc(OC)ccc4[C@H]3CC[C@@]21C	SEM cells	130
O=[N+]([O-])c1cnc(Sc2nnc(O)n2-c2ccc3c(c2)OCCO3)s1	SEM cells	73.1
COc1cccc2c1C(=O)c1c(O)c3c(c(O)c1C2=O)C[C@@](O)(C(C)=O)C[C@@H]3O[C@H]1C[C@H](N)[C@H](O)[C@H](C)O1	SEM cells	7.93
CC(=O)O[C@@]12CO[C@@H]1C[C@H](O)[C@]3(C)[C@@H]2[C@H](OC(=O)C4=CC=CC=C4)[C@]5(O)C[C@H](OC(=O)C(O)[C@@H](NC(=O)OC(C)(C)C)C6=CC=CC=C6)C(=C(/[C@@H](O)C3=O)C5(C)C)/C (stereo not given in full)	SEM cells	16.7
